Would you kindly list MIC for each of these compounds?
# Test system: S. aureus/6538pA
# protocol_notes: MIC against standard strain by two-fold agar dilution, S. aureus/6538pA
# Type: cell-based
# recorded_conditions: Staphylococcus aureus, 20 h
Give bare numbers, in µg/mL.

compound	system_under_test	unit_symbol	MIC
CO/N=C(\C(=O)NC1C(=O)N2C(C(=O)[O-])=C(CSc3nc(N)c4c([n+]3N)CCC4)CSC12)c1csc(N)n1 (stereo not shown) [Compound I-10]	S. aureus/6538pA	µg/mL	0.25
CC(C)(O/N=C(\C(=O)N[C@@H]1C(=O)N2C(C(=O)[O-])=C(C[n+]3ccccc3)CS[C@H]12)c1csc(N)n1)C(=O)O [ceftazidime, Ceftazidime, reference compound]	S. aureus/6538pA	µg/mL	16
CC(C)(O/N=C(\C(=O)NC1C(=O)N2C(C(=O)[O-])=C(CSc3nc(N)c4c([n+]3N)CCC4)CSC12)c1csc(N)n1)C(=O)O (stereo not shown) [Compound I-1]	S. aureus/6538pA	µg/mL	2

Here is another compound to look at.
Ask: Bench note: what MIC did C[C@H](O/N=C(\C(=O)NC1C(=O)N2C(C(=O)[O-])=C(CSc3nc(N)c4c([n+]3N)CCC4)CSC12)c1csc(N)n1)C(=O)O (stereo partly drawn) [I-5(S)] show?
Reply: 4
